Molecular target: Rabies virus glycoprotein G, strain CVS-11 (Challenge Virus Standard-11, ATCC VR 959) (Rabies virus, strain CVS-11)
Assay: cell-based or functional assay
Entry flag: fulfilled if CVS neutralizing antibody titre (RFFIT): IU/ml reaches 400 IU/ml; not fulfilled if it does not.

Form field: CVS neutralizing antibody titre (RFFIT): IU/ml at least 400 IU/ml? Entry: 214-E8 15GS 213-H7 (VHH) EVQLVESGGGSVQAGGSLRLSCAASGGTFNPYVMAWFRQAPGNEREFVARIRWSGGDAYYDDSVKGRFAITRDAAKNTVHLQMNSLKPEDTAVYYCAAATYGYGSYTYGGSYDLWGQGTQVTVSSGGGGSGGGGSGGGGSEVQLVESGGGLVQAGGSLRLSCAASGRTLSSYRMGWFRQAPGKEREFISTISWNGRSTYYADSVKGRFIFSEDNAKNTVYLQMNSLKPEDTAVYYCAAALIGGYYSDVDAWSYWGPGTQVTVSS
fulfilled

Form field: CVS neutralizing antibody titre (RFFIT): IU/ml at least 400 IU/ml? Entry: 213-E6 5GS 212-C12 (VHH) EVQLVESGGGLVQAGASLRLSCAASGSTLSRYGVGWFRQAPGKERELVASVDWSGSRTYYADSVKGRFTISRDNAKNTGYLQMNSLKPDDTAVYYCAADSSVVPGIEKYDDWGLGTQVTVSSGGGGSEVQLVESGGGLVQPGGSLRLSCAASGFTFGSSDMSWVRQAPGKGPEWVSGINSGGGRTLYADSVKGRFTISRDNAKNTLYLQMNSLKSEDTAVYYCATDLYGSSWYTDYWSQGTQVTVSS
not fulfilled

Form field: CVS neutralizing antibody titre (RFFIT): IU/ml at least 400 IU/ml? Entry: NB6-18GS-NB6 (VHH) EVQLVESGGGLVQAGGSLRLSCAASGPTFSADTMGWFRQAPGKEREFVATIPWSGGIAYYSDSVKGRFTMSRDNAKNTVDLQMNSLKPEDTALYYCAGSSRIYIYSDSLSERSYDYWGQGTQVTVSSGGGGSGGGGSGGGGGGGSEVQLVESGGGLVQAGGSLRLSCAASGPTFSADTMGWFRQAPGKEREFVATIPWSGGIAYYSDSVKGRFTMSRDNAKNTVDLQMNSLKPEDTALYYCAGSSRIYIYSDSLSERSYDYWGQGTQVTVSSAAAEQKLISEEDLNGAAHHHHHH
not fulfilled

Form field: CVS neutralizing antibody titre (RFFIT): IU/ml at least 400 IU/ml? Entry: 214-E8 15GS 212-C12 (VHH) EVQLVESGGGSVQAGGSLRLSCAASGGTFNPYVMAWFRQAPGNEREFVARIRWSGGDAYYDDSVKGRFAITRDAAKNTVHLQMNSLKPEDTAVYYCAAATYGYGSYTYGGSYDLWGQGTQVTVSSGGGGSGGGGSGGGGSEVQLVESGGGLVQPGGSLRLSCAASGFTFGSSDMSWVRQAPGKGPEWVSGINSGGGRTLYADSVKGRFTISRDNAKNTLYLQMNSLKSEDTAVYYCATDLYGSSWYTDYWSQGTQVTVSS
fulfilled

Form field: CVS neutralizing antibody titre (RFFIT): IU/ml at least 400 IU/ml? Entry: 213-E6 25GS 214-E8 (VHH) EVQLVESGGGLVQAGASLRLSCAASGSTLSRYGVGWFRQAPGKERELVASVDWSGSRTYYADSVKGRFTISRDNAKNTGYLQMNSLKPDDTAVYYCAADSSVVPGIEKYDDWGLGTQVTVSSGGGGSGGGGSGGGGSGGGGSGGGGSEVQLVESGGGSVQAGGSLRLSCAASGGTFNPYVMAWFRQAPGNEREFVARIRWSGGDAYYDDSVKGRFAITRDAAKNTVHLQMNSLKPEDTAVYYCAAATYGYGSYTYGGSYDLWGQGTQVTVSS
not fulfilled

Form field: CVS neutralizing antibody titre (RFFIT): IU/ml at least 400 IU/ml? Entry: 212-C12 15GS 212-C12 (VHH) EVQLVESGGGLVQPGGSLRLSCAASGFTFGSSDMSWVRQAPGKGPEWVSGINSGGGRTLYADSVKGRFTISRDNAKNTLYLQMNSLKSEDTAVYYCATDLYGSSWYTDYWSQGTQVTVSSGGGGSGGGGSGGGGSEVQLVESGGGLVQPGGSLRLSCAASGFTFGSSDMSWVRQAPGKGPEWVSGINSGGGRTLYADSVKGRFTISRDNAKNTLYLQMNSLKSEDTAVYYCATDLYGSSWYTDYWSQGTQVTVSS
not fulfilled

Value source: patent US20200123233A1
